- test-name: Cmax in LPS-induced DBA/1 mouse plasma at 0.006 microg/g, po bid preincubated for 3 days followed by LPS stimulation for 30 mins and measured after 72 hrs by flow cytometry
- Type: ADME, organism-based
- Parameters: dose 0.006 µg/g, time 6 day, route po
- measurement-setup: 0.006 µg/g
parameter-measured: Cmax (ng/mL)
Give bare numbers, in ng/mL.

Cmax lookup needed for Cc1ncn(CC(=O)N2CCN(c3sc(C(F)(F)F)nc3-c3cnc(C(F)(F)F)nc3)C[C@H]2CCO)n1 , thanks.
42

====

- test-name: Metabolic stability in human liver microsomes assessed as intrinsic clearance at 1 uM and measured upto 15 mins in presence of NADPH regenerating system by LC-MS/MS analysis
- Format: ADME, Microsome
- measurement-setup: read-out: CLH
Exercise: for every item that follows, state its recorded microsomal CLint at 1 µM.
Numbers only, in µL/min/mg.

Field: microsomal CLint at 1 µM. Fill in for each record below.
1. O=C(Cn1cnc(C2CC2)n1)N1CCN(c2sc(C(F)(F)F)nc2-c2cnc(C(F)(F)F)nc2)C[C@H]1CCO
2. CCc1ccn(CC(=O)N2CCN(c3sc(C(F)(F)F)nc3-c3cnc(C(F)(F)F)nc3)C[C@H]2CO)n1

12
81

Field: microsomal CLint at 1 µM. Fill in for each record below.
1. CC(C)c1ncn(CC(=O)N2CCN(c3sc(C(F)(F)F)nc3-c3cnc(C(F)(F)F)nc3)C[C@@H]2CO)n1
2. Cc1ccn(CC(=O)N2CCN(c3sc(C(F)(F)F)nc3-c3cnc(C(F)(F)F)nc3)C[C@@H]2CCO)n1
3. CCc1ncn(CC(=O)N2CCN(c3sc(C(F)(F)F)nc3-c3cnc(C(F)(F)F)nc3)C[C@@H]2CCO)n1

1: 27; 2: 23; 3: 17
